Consider the following compounds and their measured IC50 readings.
target: Glutamate carboxypeptidase 2 (Rattus norvegicus, UniProt P70627)
Sequence (P70627 whole entry): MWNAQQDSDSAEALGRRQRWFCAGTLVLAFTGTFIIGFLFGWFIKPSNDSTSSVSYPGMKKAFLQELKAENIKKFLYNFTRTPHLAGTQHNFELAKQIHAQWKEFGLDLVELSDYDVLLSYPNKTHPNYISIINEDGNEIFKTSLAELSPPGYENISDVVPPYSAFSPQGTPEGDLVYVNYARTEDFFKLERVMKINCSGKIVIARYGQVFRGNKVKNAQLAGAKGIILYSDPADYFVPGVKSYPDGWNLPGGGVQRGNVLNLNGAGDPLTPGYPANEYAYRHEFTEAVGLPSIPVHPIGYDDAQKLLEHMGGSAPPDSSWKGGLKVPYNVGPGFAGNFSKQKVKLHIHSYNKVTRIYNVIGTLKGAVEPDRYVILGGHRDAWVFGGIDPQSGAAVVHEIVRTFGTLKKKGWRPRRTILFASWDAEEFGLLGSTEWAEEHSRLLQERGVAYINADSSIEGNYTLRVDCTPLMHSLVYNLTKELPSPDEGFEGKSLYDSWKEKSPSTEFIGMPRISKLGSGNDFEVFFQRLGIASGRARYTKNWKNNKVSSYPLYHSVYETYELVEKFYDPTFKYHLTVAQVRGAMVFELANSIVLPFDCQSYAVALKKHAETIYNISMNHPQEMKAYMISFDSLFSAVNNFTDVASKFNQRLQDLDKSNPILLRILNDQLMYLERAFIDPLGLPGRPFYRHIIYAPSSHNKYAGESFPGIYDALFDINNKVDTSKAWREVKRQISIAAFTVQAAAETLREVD
Number in nM, nothing else.

INSERT INTO results (compound, measurement) VALUES
  ('O=C(O)CCC(CP(=O)(O)C(O)c1ccncc1)C(=O)O (centres undefined)', 10);

// IC50 (Glutamate carboxypeptidase 2 (Rattus norvegicus, UniProt P70627)) for O=C(O)CC(CP(=O)(O)O)C(=O)O (centres undefined) = 2200

// IC50 (Glutamate carboxypeptidase 2 (Rattus norvegicus, UniProt P70627)) for O=C(O)CCC(CP(=O)(O)CC(CCC(=O)O)C(=O)O)C(=O)O (centres undefined) = 0.5

// IC50 (Glutamate carboxypeptidase 2 (Rattus norvegicus, UniProt P70627)) for O=C(O)CCC(CP(=O)(O)Cc1cc(F)cc(F)c1)C(=O)O (centres undefined) = 49
